# Procedure summary: clinical
# Condition set: human, in vivo, 214 mg/m2, t1/2
Observation type: half-life (h)
Form entry: value (h) — number only.

Exercise: # query: half-life of entry O=C(CCCCCCC(=O)Nc1ccccc1)NO
Solution: 1.12

---

# Procedure summary: clinical
# Condition set: human, in vivo, 330 mg/m2, Clearance
Observation type: Clearance (mL/min)
Dear colleague, please return just the value in mL/min, with no unit written.

Exercise: Form field: reported Clearance of O=C(CCCCCCC(=O)Nc1ccccc1)NO
Solution: 2100

---

# Procedure summary: clinical
# Condition set: human, in vivo, 330 mg/m2, Vz
Observation type: Vd (L)
Field format: number, assumed L, no unit text.

Exercise: // query Vd value for entry O=C(CCCCCCC(=O)Nc1ccccc1)NO [vorinostat]
Solution: 429
